Ref: patent US8614217B2

- Method summary: log P(HCOOH) (HPLC/MS)
- Type: physicochemical
- Experimental setup: HPLC on reversed phase columns, EEC directive 79/831 Annex V.A8; pH 2.7 with 0.1% formic acid in water and acetonitrile
The following molecules are listed with their measured log p values.
Give the value as a plain number.

{"Molecule": "COC(=O)CCCCC(=O)Nc1nc(CON=C(c2cccc(F)c2)c2nnnn2C)cs1 [Example 298]", "log p": 2.94}

Next molecule, please.
[in] Consider the molecule Cc1ccc(C(=O)Nc2cccc(CON=C(c3cccc(F)c3)c3nnnn3C)n2)c(Cl)c1 [Example 354] and give its measured log p.
[out] 3.9

* * *

- Method summary: log P(HCOOH) (HPLC/MS)
- Format: physicochemical
- Experimental setup: HPLC on reversed phase columns, EEC directive 79/831 Annex V.A8; pH 2.7 with 0.1% formic acid in water and acetonitrile
Listed here are compounds together with their documented log p.
Lab note: jot down the number only; don't add units.

[in] # log p lookup, item CCOc1ccc(C(=O)Nc2nc(CON=C(c3ccccc3)c3nnnn3C)cs2)cc1
[out] 3.64

[in] Returns the measured log p for the input compound. Input: Cn1nnnc1C(=NOCc1cccc(NC(=O)c2ccccc2Br)n1)c1cccc(F)c1
[out] 3.59

[in] So what does the record say about log p for Cn1nnnc1C(=NOCc1cccc(NC(=O)c2ccc(F)cc2)n1)c1cccc(F)c1 ?
[out] 3.57
